B1: CDC25A (parent)
chain: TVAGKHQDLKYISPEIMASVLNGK

Variants of: B1
method-notes: protein stability index of a GFP-peptide fusion (GPS, HEK-293T) (PSI 1-6); higher = more stable;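 note: lentivirally expressed fusions sorted by FACS into six bins by GFP to DsRed ratio, PSI derived from sequencing read proportions per bin multiplied by bin number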
stated-conditions: c terminus: a fixed tail appended
assay-readout: protein stability index
One number for each entry.

Worked examples follow.
L9P | 3.37
Y11W | 2.78

Parameter requested: protein stability index. Apply to each item below.
1. A18P
2. K24N
3. Q7D
4. H6L

1. 3.6
2. 3.21
3. 3.06
4. 2.13

Parameter requested: protein stability index. Apply to each item below.
1. K10E
2. P14C
3. E15P

1: 3.42; 2: 1.85; 3: 3.05
